# TGI per entry
System: HT29 colon
Assay: NCI tumour cell line growth inhibition, 48 h

Worked examples follow.
Reported TGI for HT29 colon, given NCC(=O)CCC(=O)O ? > 100 µM

Next compound: CC(CC(C)(C)[N+](C)(C)C)[N+](C)(C)C (stereo not drawn) > 100 µM

Next compound: CCCCC#Cc1cccc(=O)o1 > 100 µM

Next compound: C=C(C(=O)OC)[C@@H]1C[C@@H](O)[C@]2(C)CC/C=C(\C)CCC[C@H](C)[C@H](O)C1O2 > 100 µM

Next compound: O=[N+]([O-])c1ccc2c(c1)S(=O)c1ccccc1-2 (stereo not drawn) > 100 µM

***
Reported TGI for HT29 colon, given C=C(COC(=O)C(C)C)[C@H]1Oc2ccc(C(C)=O)cc2[C@@H]1OC(=O)C(C)C ? > 100 µM

Next compound: O=C(CCC(=O)OCC1OC(O)(CC2OC(CO)C(O)C(O)C2O)C(O)C1O)OCc1ccccc1 (stereo not drawn) > 100 µM

Next compound: COc1cc(C2c3cc4c(cc3OC(N3CCOCC3)C2C)OCO4)cc(OC)c1OC(C)=O (stereo not drawn) 57.9 µM

Next compound: Oc1ccccc1C=Nc1ccccc1N=Cc1ccccc1O > 100 µM

Next compound: N#CI1OC(C(F)(F)F)(C(F)(F)F)c2ccccc21 40.8 µM
